target: HIV-1 Env of isolate MGRM-F1-020 (subtype F) (HIV-1); experiment: cell-based or functional assay
IC50 (neutralization) by entry:
reportedMetric: IC50 (neutralization) (µg/mL)

{"columns": ["binder", "resultUnits", "quantitativeReadout"],
 "data": [
  ["PGT-137 (antibody, V domains shown) VH: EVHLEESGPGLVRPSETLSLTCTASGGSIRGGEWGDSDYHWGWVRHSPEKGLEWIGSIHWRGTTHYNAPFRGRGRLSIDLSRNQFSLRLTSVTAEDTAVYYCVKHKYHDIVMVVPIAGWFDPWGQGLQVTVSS VL: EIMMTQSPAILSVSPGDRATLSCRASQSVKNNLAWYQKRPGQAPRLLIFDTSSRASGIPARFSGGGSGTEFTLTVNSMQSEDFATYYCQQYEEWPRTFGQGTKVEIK", "µg/mL", 1.93],
  ["PGT-130 (antibody, V domains shown) VH: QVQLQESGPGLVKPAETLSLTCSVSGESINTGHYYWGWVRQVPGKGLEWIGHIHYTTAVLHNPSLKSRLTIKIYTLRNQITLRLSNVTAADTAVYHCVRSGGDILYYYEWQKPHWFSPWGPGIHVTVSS VL: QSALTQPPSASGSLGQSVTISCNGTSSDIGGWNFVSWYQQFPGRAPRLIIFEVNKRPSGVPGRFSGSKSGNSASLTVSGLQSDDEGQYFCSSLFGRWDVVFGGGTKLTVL", "µg/mL", 9.73],
  ["PGT-128 (antibody, V domains shown) VH: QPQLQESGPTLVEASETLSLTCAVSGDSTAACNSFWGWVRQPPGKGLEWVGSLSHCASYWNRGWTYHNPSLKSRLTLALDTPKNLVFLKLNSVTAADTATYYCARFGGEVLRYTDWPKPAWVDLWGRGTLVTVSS VL: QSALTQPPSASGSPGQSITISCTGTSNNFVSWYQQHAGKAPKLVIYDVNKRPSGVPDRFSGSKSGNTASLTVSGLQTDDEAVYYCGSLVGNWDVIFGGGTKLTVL", "µg/mL", 0.355]
]}
